tested on: HepG2-CANX-COX4; experiment: phenotypically active (imaging signature differs from DMSO and reproducible) at any of 0.3-9 uM (binary (1 = active, 0 = inactive)); higher = active; settings: treatment time: 24 h
Structures can show the parent of a compound that is named as a salt.
MEASURED_PROPERTY: phenotypically active
One number for each entry.

Here's what some known entries look like.
MOLECULE	MEASURED_PROPERTY	VALUE_MEASURED
O=C(Nc1cc(C(F)(F)F)cc(C(F)(F)F)c1)c1cnc(Cl)nc1C(F)(F)F	phenotypically active	0
O=C(NCc1cccc(O)c1)Nc1nc(-c2ccncc2)cs1 [RKI 1447 dihydrochloride]	phenotypically active	1
CCNC(=O)c1noc(-c2cc(C(C)C)c(O)cc2O)c1-c1ccc(CN2CCOCC2)cc1	phenotypically active	1
COc1cc(N2CCC(N3CCN(C)CC3)CC2)ccc1Nc1ncnc(Nc2ccccc2S(=O)(=O)C(C)C)n1	phenotypically active	1
N[C@@H](C(=O)O)c1ccc(C(=O)O)c(C(=O)O)c1	phenotypically active	0
O=C(Nc1cccnc1)N1CCC(Cc2cccc(Oc3ccc(C(F)(F)F)cn3)c2)CC1	phenotypically active	0
CC(C)COCC(CN(Cc1ccccc1)c1ccccc1)N1CCCC1 (stereo not given)	phenotypically active	1
O=C(/C=C/N1C[C@H]2C[C@@H]1CN2c1ccccn1)c1ccccc1O	phenotypically active	0
C[C@H]1[C@H]2CC[C@H]3[C@@H]4CC=C5C[C@@H](N(C)C)CC[C@]5(C)[C@H]4CC[C@]23CN1C	phenotypically active	1
COc1cc(O)cc(O)c1C(=O)/C=C/c1ccccc1	phenotypically active	1

The following molecules each have a reported value; give each one's phenotypically active.
1. CCN(c1ccccc1)c1cc(NC)[n+](C)c(C)n1
2. O=C(CCCCCCC(=O)Nc1ccccc1)NO
3. O=C(/C=C/c1ccc2ccccc2n1)c1ccncc1

*A*
[0, 1, 0]

The following molecules each have a reported value; give each one's phenotypically active.
1. NS(=O)(=O)c1cc(C2(O)NC(=O)c3ccccc32)ccc1Cl (stereo not given)
2. NS(=O)(=O)c1cc2c(cc1C(F)(F)F)NC(Cc1ccccc1)NS2(=O)=O (stereo not given) [bendroflumethiazide]
3. CCCCCCCCCCCCCCCCCCc1ccc(C(=O)/C=C/C(=O)O)cc1
4. Cc1ncc([N+](=O)[O-])n1CCOC(=O)NC(Nc1ncccn1)C(Cl)(Cl)Cl (stereo not given)

*A*
1: 0; 2: 1; 3: 0; 4: 0

The following molecules each have a reported value; give each one's phenotypically active.
1. CCOc1cc(CC(=O)N[C@@H](CC(C)C)c2ccccc2N2CCCCC2)ccc1C(=O)O [repaglinide]
2. CC1CCC(C(C)C)C(O)C1 (stereo not given)
3. CC(C)Cc1ccc(C(C)C(=O)O)cc1 (stereo not given)

*A*
1. 0
2. 0
3. 0

====

Could you please report measured lowest phenotypically active concentration for the items listed next?
system: HepG2-ACTB-RAB5A; test: lowest phenotypically active concentration; higher = less potent; details: treatment time: 24 h
Structures can show the parent of a compound that is named as a salt.
One number for each entry, in µM.

Here's what some known entries look like.
COMPOUND	ENDPOINT_UNIT	VALUE_MEASURED
O=C(O)C[C@H](O)C[C@H](O)/C=C/c1c(C2CC2)nc2ccccc2c1-c1ccc(F)cc1	µM	1
CC(=O)Nc1ccc(C(=O)Nc2ccccc2N)cc1	µM	3

*Q* For the compound CCCc1cc2c(N3CCN(C4=NCC(C)(C)S4)CC3)ncnc2s1 [MI 2 dihydrochloride] , what lowest phenotypically active concentration is on record?
*A* 9

====

test system: HepG2-TP53BP1-CLTA; test: phenotypically active (imaging signature differs from DMSO and reproducible) at any of 0.3-9 uM (binary (1 = active, 0 = inactive)); higher = active; settings: treatment time: 24 h
Counter-ions that a name gives are not always drawn.
Could you please report measured phenotypically active for the items listed next?
One number for each entry.

Here's what some known entries look like.
COMPOUND	STUDY_SYSTEM	VALUE_MEASURED
COc1ccc(C[C@@H]2c3cc(OC)c(OC)cc3CC[N@+]2(C)CCC(=O)OCCCCCOC(=O)CC[N@@+]2(C)CCc3cc(OC)c(OC)cc3[C@H]2Cc2ccc(OC)c(OC)c2)cc1OC [Cisatracurium besylate]	HepG2-TP53BP1-CLTA	0
COc1c(Nc2cc(C)[nH]n2)nc(Sc2ccc(S(=O)(=O)Cc3cccc([N+](=O)[O-])c3F)cc2F)nc1N1CCOCC1	HepG2-TP53BP1-CLTA	1
NS(=O)(=O)c1cc(Cl)c(Cl)c(S(N)(=O)=O)c1 [diclofenamide]	HepG2-TP53BP1-CLTA	0

// switching to the query compound
*Q* For the compound COc1cc(N2CCC(O)CC2)ccc1Nc1cc(Nc2ccccc2S(=O)(=O)C(C)C)c2cc[nH]c2n1 [Mps1-IN-1 dihydrochloride] , what phenotypically active is on record?
*A* 1

====

system: HepG2-GM130-SQSTM1; assay: phenotypically active (imaging signature differs from DMSO and reproducible) at any of 0.3-9 uM (binary (1 = active, 0 = inactive)); higher = active; conditions: treatment time: 24 h
Respond with a class label; see label 1 (active), label 0 (inactive)

*Q* What classification did `NC(=O)Nc1sc(-c2ccc(F)cc2)cc1C(N)=O` end up with in this test?
*A* label 1

*Q* Same question for `O=C1NCCCc2c1oc1ccc(O)cc21` please.
*A* label 0

*Q* Same question for `CCC(CC)(NC(=O)C(C)C)C(=O)N[C@@H](CCCNC(=N)N)C(=O)NC1(C(=O)NC(c2ccc(F)cc2)c2ccc(F)cc2)CCCC1` please.
*A* label 0

*Q* Same question for CC(CN(C)C)CN1c2ccccc2CCc2ccccc21 (stereo not given) please.
*A* label 0

*Q* Same question for `Nc1ccc(-c2cccc3c(=O)cc(N4CCOCC4)oc23)cc1` please.
*A* label 1

====

tested on: A549-TP53BP1-CLTA; assay: phenotypically active (imaging signature differs from DMSO and reproducible) at any of 0.3-9 uM (binary (1 = active, 0 = inactive)); higher = active; conditions: treatment time: 24 h
Structures can show the parent of a compound that is named as a salt.
Respond with a class label; see yes (1) (active), no (0) (inactive)

Solved cases below.
COMPOUND	ASSIGNED_LABEL
CCN(CC)CCOC(=O)C1(C2CCCCC2)CCCCC1	no (0)
Cc1[nH]c2ccccc2c1CCNC(=O)c1ccccc1F	no (0)
COc1cc2nc(-c3cc(F)ccc3O)nc(N[C@@H]3CNC[C@H]3C(C)(C)O)c2cc1OC	yes (1)
COc1ccc2c(c1OC)C(=O)O[C@@H]2[C@H]1c2c(cc3c(c2OC)OCO3)CCN1C [Noscapine hydrochloride]	no (0)

*Q* What classification did `Fc1ccc(-c2c3cccc(C(F)(F)F)c3nn2Cc2ccc(F)cc2Cl)cc1` end up with in this test?
*A* no (0)

*Q* Same question for `CN(C)c1ccc(C(=O)NCCCCCCC(=O)NO)cc1` please.
*A* yes (1)

*Q* Same question for `O=C1c2c(O)cccc2Cc2cccc(O)c21` please.
*A* no (0)

*Q* Same question for `COc1ccc2c(c1)N(C(C)=O)[C@H]1[C@@H]3CO[C@H](C)[C@@H]4CN5CC[C@]21[C@@H]5C[C@H]34` please.
*A* no (0)

*Q* Same question for `Cc1ccc(-c2csc3ncnc(SCCC(=O)O)c23)cc1` please.
*A* no (0)

====

Could you please report measured phenotypically active for the items listed next?
system: HepG2-CANX-COX4; test: phenotypically active (imaging signature differs from DMSO and reproducible) at any of 0.3-9 uM (binary (1 = active, 0 = inactive)); higher = active; settings: treatment time: 24 h
Where a name gives a salt, the structure may show the parent alone.
Answers are plain numbers.

Here's what some known entries look like.
MOLECULE	STUDY_SYSTEM	phenotypically active
CC(C)(C(=O)O)c1ccc(C(O)CCCN2CCC(C(O)(c3ccccc3)c3ccccc3)CC2)cc1 (stereo not drawn) [fexofenadine]	HepG2-CANX-COX4	0
Nc1cc(-c2ccncc2)c[nH]c1=O	HepG2-CANX-COX4	0

The following molecules each have a reported value; give each one's phenotypically active.
1. CC(C)n1c(/C=C/[C@@H](O)C[C@@H](O)CC(=O)O)c(-c2ccc(F)cc2)c2ccccc21.CC(C)n1c(/C=C/[C@H](O)C[C@H](O)CC(=O)O)c(-c2ccc(F)cc2)c2ccccc21 [Fluvastatin sodium]
2. Cc1ccc(NC(=O)c2ccc(CN3CCN(C)CC3)cc2)cc1Nc1nccc(-c2cccnc2)n1 [Imatinib mesylate]
3. CCC(CC)(NC(=O)C(C)C)C(=O)N[C@@H](CCCNC(=N)N)C(=O)NC1(C(=O)NC(c2ccc(F)cc2)c2ccc(F)cc2)CCCC1

*A*
[1, 1, 0]

====

tested on: A549-TP53BP1-CLTA; test: phenotypically active (imaging signature differs from DMSO and reproducible) at any of 0.3-9 uM (binary (1 = active, 0 = inactive)); higher = active; conditions: treatment time: 24 h
Respond with a class label; see active, inactive

COMPOUND	ASSIGNED_LABEL
Cc1cc(C)cc(C(=O)NOCCCCCC(=O)NO)c1	active
Nc1nnc(-c2cccc(Cl)c2Cl)c(N)n1	inactive
CCCOc1ccn2c(C(C)=O)cc(-c3ccccc3S(C)(=O)=O)c2c1	inactive

*Q* What classification did `CNC(=O)c1cc(Oc2ccc(NC(=O)Nc3ccc(Cl)c(C(F)(F)F)c3)cc2)ccn1` end up with in this test?
*A* active

*Q* Same question for `NC1(C(=O)N[C@@H](CCO)c2ccc(Cl)cc2)CCN(c2ncnc3[nH]ccc23)CC1` please.
*A* active

*Q* Same question for `Nc1ncnc2c1cnn2-c1ccccc1` please.
*A* inactive

*Q* Same question for `O=C(NOCC1CC1)c1ccc(F)c(F)c1Nc1ccc(I)cc1Cl` please.
*A* active

*Q* Same question for C[N+](C)(C)CC[N+]1(C)Cc2c(Cl)c(Cl)c(Cl)c(Cl)c2C1 [Chlorisondamine diiodide] please.
*A* inactive

*Q* Same question for NS(=O)(=O)Cc1noc2ccccc12 [zonisamide] please.
*A* inactive

*Q* Same question for `CN(N=O)C(=O)N[C@@H](C=O)[C@@H](O)[C@H](O)[C@H](O)CO.CN(N=O)C(=O)N[C@H]1C(O)O[C@H](CO)[C@@H](O)[C@@H]1O` please.
*A* inactive
